target: p120γ (PI3Kγ) (Homo sapiens, UniProt P48736); construct: purchased BPS Bioscience 40625; assay: HTRF assay, p120γ; type: biochemical; conditions: PI3Kγ; read-out: PI3Kγ HTRF IC50 Inhibition Designation
Sequence (P48736 whole entry): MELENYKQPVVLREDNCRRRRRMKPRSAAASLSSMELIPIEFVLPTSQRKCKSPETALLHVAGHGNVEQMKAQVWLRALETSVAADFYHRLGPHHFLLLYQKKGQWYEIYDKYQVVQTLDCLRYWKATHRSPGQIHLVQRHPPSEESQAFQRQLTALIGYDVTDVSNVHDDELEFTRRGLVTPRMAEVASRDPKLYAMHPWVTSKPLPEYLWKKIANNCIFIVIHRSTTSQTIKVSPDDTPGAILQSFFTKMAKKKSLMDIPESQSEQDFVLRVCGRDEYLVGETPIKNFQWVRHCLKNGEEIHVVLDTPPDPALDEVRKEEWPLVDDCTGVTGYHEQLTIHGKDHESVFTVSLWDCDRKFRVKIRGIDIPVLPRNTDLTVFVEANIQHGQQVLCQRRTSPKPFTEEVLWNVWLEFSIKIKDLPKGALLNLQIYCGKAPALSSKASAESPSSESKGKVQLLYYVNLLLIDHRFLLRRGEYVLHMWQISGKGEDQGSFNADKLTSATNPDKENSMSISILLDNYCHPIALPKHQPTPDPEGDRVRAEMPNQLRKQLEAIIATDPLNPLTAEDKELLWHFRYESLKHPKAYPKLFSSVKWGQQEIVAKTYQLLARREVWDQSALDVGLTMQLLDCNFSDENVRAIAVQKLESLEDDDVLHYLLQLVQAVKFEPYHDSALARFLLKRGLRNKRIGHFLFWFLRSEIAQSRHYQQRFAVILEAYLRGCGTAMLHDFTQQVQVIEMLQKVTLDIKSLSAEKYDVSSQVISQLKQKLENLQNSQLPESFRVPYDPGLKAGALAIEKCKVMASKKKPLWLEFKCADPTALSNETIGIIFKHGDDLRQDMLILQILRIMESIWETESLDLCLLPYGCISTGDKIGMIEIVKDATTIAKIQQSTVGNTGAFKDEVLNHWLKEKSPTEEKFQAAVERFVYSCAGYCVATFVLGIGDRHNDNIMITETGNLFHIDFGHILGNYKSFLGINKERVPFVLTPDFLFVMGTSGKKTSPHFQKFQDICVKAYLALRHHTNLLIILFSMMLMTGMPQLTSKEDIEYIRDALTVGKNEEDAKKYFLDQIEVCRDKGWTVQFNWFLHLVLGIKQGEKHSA
endpoint: IC50

Consider the worked cases shown below.
CC1(C)Cc2nc(N3CCOc4ccc(C(=O)N5C[C@@H]6C[C@H]5C(=O)O6)cc43)sc2C(=O)N1 [XXIII-4]: 100 to 1000 nM
CC(C)Oc1c(N(C)Cc2cc3nc(-c4cccc(O)c4)nc(N4CCOCC4)c3s2)c(=O)c1=O [XXII-11]: 100 to 1000 nM

Request: GET /values?readout=IC50&item= COC(=O)N1C(=O)CC[C@H]1C(=O)N1CCN(Cc2cc3nc(-c4cnc(N)nc4)nc(N4CCOCC4)c3s2)CC1 [XXII-29]
Result: 100 to 1000 nM

Request: GET /values?readout=IC50&item= O=C1CC[C@@H](C(=O)N2CCN(c3ccnc4ccc(/C=C5\SC(Nc6c(Cl)cccc6Cl)=NC5=O)cc34)CC2)O1 [XXIV-2]
Result: 100 to 1000 nM

Request: GET /values?readout=IC50&item= C=CC(=O)N(C)Cc1cc2nc(-c3cccc(O)c3)nc(N3CCOCC3)c2s1 [XXII-5]
Result: 100 to 1000 nM

Request: GET /values?readout=IC50&item= CC(C)Oc1c(NCC(=O)N2CCN(Cc3cc4nc(-c5cnc(N)nc5)nc(N5CCOCC5)c4s3)CC2)c(=O)c1=O [XXII-27]
Result: 100 to 1000 nM

Request: GET /values?readout=IC50&item= Nc1ncc(-c2nc(N3CCOCC3)c3sc(CN4CCN(C(=O)C5CCC(=O)S5)CC4)cc3n2)cn1 (stereo not drawn) [XXII-32]
Result: 100 to 1000 nM

Request: GET /values?readout=IC50&item= C=CC(=O)N1CCN(CC#Cc2cc3nc(-c4cccc(O)c4)nc(N4CCOCC4)c3s2)CC1 [XXII-3]
Result: 100 to 1000 nM

Request: GET /values?readout=IC50&item= C[C@H]1OC(=O)[C@H]1NC(=O)N1CCN(Cc2cc3nc(-c4cccc5[nH]ncc45)nc(N4CCOCC4)c3s2)CC1 [XXII-13]
Result: 100 to 1000 nM

Request: GET /values?readout=IC50&item= O=C1CC[C@H](C(=O)N2CCN(Cc3cc4nc(-c5cccc6[nH]ncc56)nc(N5CCOCC5)c4s3)CC2)O1 [XXII-22]
Result: 100 to 1000 nM

Request: GET /values?readout=IC50&item= O=C1CC[C@@H](C(=O)N2CCN(Cc3cc4nc(-c5cccc6[nH]ncc56)nc(N5CCOCC5)c4s3)CC2)O1 [XXII-23]
Result: 100 to 1000 nM

Request: GET /values?readout=IC50&item= Nc1ncc(-c2nc(N3CCOCC3)c3sc(CN4CCN(C(=O)C5CCSC5=O)CC4)cc3n2)cn1 (stereo not drawn) [XXII-30]
Result: 10 to 100 nM

Request: GET /values?readout=IC50&item= CC(C)Oc1c(N2CCN(Cc3cc4nc(-c5cccc6[nH]ncc56)nc(N5CCOCC5)c4s3)CC2)c(=O)c1=O [XXII-15]
Result: 100 to 1000 nM

Request: GET /values?readout=IC50&item= C=CC(=O)Nc1cccc(-c2nc(N3CCOCC3)c3sccc3n2)c1 [XXII-21]
Result: 1000 to 10000 nM

Request: GET /values?readout=IC50&item= COC(=O)N1C(=O)CC[C@@H]1C(=O)N1CCN(Cc2cc3nc(-c4cnc(N)nc4)nc(N4CCOCC4)c3s2)CC1 [XXII-28]
Result: 100 to 1000 nM
